assayedSystem: Avi-KRAS G12V (1-169) GppNHp/RAF1 RBD-3xFLAG (52-151) (Homo sapiens, UniProt P01116, G12V)
Construct: Avi-KRAS G12V (1-169)
Sequence (P01116 1-169 isoform P01116-2 G12V): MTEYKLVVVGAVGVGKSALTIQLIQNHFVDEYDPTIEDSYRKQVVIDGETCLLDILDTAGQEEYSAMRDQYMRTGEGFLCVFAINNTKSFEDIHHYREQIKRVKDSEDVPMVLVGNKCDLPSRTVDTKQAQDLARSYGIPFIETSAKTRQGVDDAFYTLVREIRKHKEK
assayExplanation: Raf1-KRAS G12V-GppNHP disruption HTRF assay (Biological Example 1)
Assay type: binding
conditionNotes: KRAS G12V, GppNHp-loaded; class symbols
Experimental: A protein:protein interaction (PPI) Homogeneous Time Resolved Fluorescence (HTRF) assay was used to determine the effectiveness of compounds of the present disclosure in disrupting KRAS protein and effector RAF1 binding. The assay buffer included: 50 mM Tris pH 7.5, 100 mM NaCl, 5 mM MgCl2, 0.1% BSA, 0.01% Tween, and 10% DMSO. The bead buffer included: 50 mM Tris pH 7.5, and 0.01% Tween 20. […] Data was reported as percentage of activity, with DMSO as 100%. Data was plotted and analyzed using Prism 8.
In this section, each of the compounds is paired with its reported IC50.

Worked set:
Observed IC50 on Avi-KRAS G12V (1-169) GppNHp/RAF1 RBD-3xFLAG (52-151) (Homo sapiens, UniProt P01116, G12V) for CCN(c1nc(OC[C@@]23CCCN2C[C@H](F)C3)nc2c(F)c(-c3ccc(F)c4sc(N)c(C#N)c34)c(C(F)(F)F)cc12)[C@H]1CCN(C(=O)[C@@H]2C[C@H]2F)C1 (atropisomer, axis not shown) , please.
< 100 nM

Observed IC50 on Avi-KRAS G12V (1-169) GppNHp/RAF1 RBD-3xFLAG (52-151) (Homo sapiens, UniProt P01116, G12V) for CCN(c1nc(OC[C@]23CCCN2C[C@H](F)C3)nc2c(F)c(-c3ccc(F)c4sc(N)c(C#N)c34)c(C(F)(F)F)cc12)[C@H]1CCN(C(=O)C(C)C)C1 , please.
100 to 1000 nM

Observed IC50 on Avi-KRAS G12V (1-169) GppNHp/RAF1 RBD-3xFLAG (52-151) (Homo sapiens, UniProt P01116, G12V) for CCN(c1nc(OC[C@@]23CCCN2C[C@H](F)C3)nc2c(F)c(-c3ccc(F)c4sc(N)c(C#N)c34)c(C(F)(F)F)cc12)[C@H]1CCN(C(=O)OC)[C@@H]1C (atropisomer, axis not shown) , please.
100 to 1000 nM

Observed IC50 on Avi-KRAS G12V (1-169) GppNHp/RAF1 RBD-3xFLAG (52-151) (Homo sapiens, UniProt P01116, G12V) for CCN(c1nc(OC[C@@]23CCCN2C[C@H](F)C3)nc2c(F)c(-c3ccc(F)c4sc(N)c(C#N)c34)c(C(F)(F)F)cc12)[C@H]1CC(=O)N(C)C1 (atropisomer, axis not shown) , please.
< 100 nM

Observed IC50 on Avi-KRAS G12V (1-169) GppNHp/RAF1 RBD-3xFLAG (52-151) (Homo sapiens, UniProt P01116, G12V) for CCC(=O)N1C[C@@H](N(CC)c2nc(OC[C@@]34CCCN3C[C@H](F)C4)nc3c(F)c(-c4ccc(F)c5sc(N)c(C#N)c45)c(C(F)(F)F)cc23)C[C@H]1COC (atropisomer, axis not shown) , please.
100 to 1000 nM

More entries:
Observed IC50 on Avi-KRAS G12V (1-169) GppNHp/RAF1 RBD-3xFLAG (52-151) (Homo sapiens, UniProt P01116, G12V) for COC1CN(C(=O)N2CC[C@H](N(c3nc(OC[C@@]45CCCN4C[C@H](F)C5)nc4c(F)c(-c5ccc(F)c6sc(N)c(C#N)c56)c(C(F)(F)F)cc34)C3CC3)C2)C1 (atropisomer, axis not shown) , please.
100 to 1000 nM

Observed IC50 on Avi-KRAS G12V (1-169) GppNHp/RAF1 RBD-3xFLAG (52-151) (Homo sapiens, UniProt P01116, G12V) for CCN(c1nc(OC[C@@]23CCCN2C[C@H](F)C3)nc2c(F)c(-c3ccc(F)c4sc(N)c(C#N)c34)c(C(F)(F)F)cc12)[C@H]1CCN(C(=O)OC)[C@H]1C (atropisomer, axis not shown) , please.
1000 to 10000 nM

Observed IC50 on Avi-KRAS G12V (1-169) GppNHp/RAF1 RBD-3xFLAG (52-151) (Homo sapiens, UniProt P01116, G12V) for CCN(c1nc(OC[C@@]23CCCN2C[C@H](F)C3)nc2c(F)c(-c3ccc(F)c4sc(N)c(C#N)c34)c(C(F)(F)F)cc12)[C@H]1CCN(C(=O)OC2CC(OC)C2)C1 (some centres unmarked) , please.
< 100 nM

Observed IC50 on Avi-KRAS G12V (1-169) GppNHp/RAF1 RBD-3xFLAG (52-151) (Homo sapiens, UniProt P01116, G12V) for COC(=O)N1CC[C@H](N(C)c2nc(OC[C@@]34CCCN3C[C@H](F)C4)nc3c(F)c(-c4ccc(F)c5sc(N)c(C#N)c45)c(C(F)(F)F)cc23)C1 (atropisomer, axis not shown) , please.
< 100 nM

Observed IC50 on Avi-KRAS G12V (1-169) GppNHp/RAF1 RBD-3xFLAG (52-151) (Homo sapiens, UniProt P01116, G12V) for N#Cc1c(N)sc2c(F)ccc(-c3c(C(F)(F)F)cc4c(N(Cc5cccnc5N)C5CC5)nc(OC[C@@]56CCCN5C[C@H](F)C6)nc4c3F)c12 (atropisomer, axis not shown) , please.
1000 to 10000 nM

Observed IC50 on Avi-KRAS G12V (1-169) GppNHp/RAF1 RBD-3xFLAG (52-151) (Homo sapiens, UniProt P01116, G12V) for CC[C@H](C)C(=O)N1CC[C@H](N(CC)c2nc(OC[C@@]34CCCN3C[C@H](F)C4)nc3c(F)c(-c4ccc(F)c5sc(N)c(C#N)c45)c(C(F)(F)F)cc23)C1 (atropisomer, axis not shown) , please.
100 to 1000 nM

Observed IC50 on Avi-KRAS G12V (1-169) GppNHp/RAF1 RBD-3xFLAG (52-151) (Homo sapiens, UniProt P01116, G12V) for CCN(c1nc(OC[C@@]23CCCN2C[C@H](F)C3)nc2c(F)c(-c3ccc(F)c4sc(N)c(C#N)c34)c(C(F)(F)F)cc12)[C@H]1CCN(C(=O)C(C)(F)F)C1 (atropisomer, axis not shown) , please.
< 100 nM
